Reference source for all entries: patent US10975068B2

Molecular target: full-length human RORγt (Homo sapiens (Human))
Sequence (P51449 other isoform, or with tags, fused parts or gaps): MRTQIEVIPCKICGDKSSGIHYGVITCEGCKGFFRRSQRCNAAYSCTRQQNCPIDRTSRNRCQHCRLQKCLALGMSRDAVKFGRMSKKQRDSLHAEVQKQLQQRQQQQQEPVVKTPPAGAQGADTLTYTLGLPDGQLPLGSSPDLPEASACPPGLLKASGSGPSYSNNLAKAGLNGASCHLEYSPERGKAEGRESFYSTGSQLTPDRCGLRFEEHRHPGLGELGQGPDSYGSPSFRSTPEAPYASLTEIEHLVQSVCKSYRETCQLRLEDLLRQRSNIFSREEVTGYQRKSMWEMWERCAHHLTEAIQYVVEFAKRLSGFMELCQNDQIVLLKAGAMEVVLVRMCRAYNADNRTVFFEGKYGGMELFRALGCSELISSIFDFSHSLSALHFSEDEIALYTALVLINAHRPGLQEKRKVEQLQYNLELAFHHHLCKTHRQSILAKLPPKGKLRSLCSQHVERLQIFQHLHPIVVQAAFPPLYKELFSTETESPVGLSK
Test: RORγt (full-length human) reporter assay, Conditions B or C
Format: cell-based
Conditions: Conditions B or C; marked *: footnote not given
endpoint name: RORγt (FL) Reporter Assay B or C, % inhibition (value marked *)

Query block: Under full-length human RORγt (Homo sapiens (Human)): report RORγt (FL) Reporter Assay B or C, % inhibition (value marked *) of CCC(C)(C)Nc1cc(C(F)F)c(-c2sc(C(=O)NCC(C)(C)O)nc2C(=O)N2CC(F)(F)C[C@@H]2C)cn1 .
Result block: 115* %

Query block: State, for full-length human RORγt (Homo sapiens (Human)), measured RORγt (FL) Reporter Assay B or C, % inhibition (value marked *) of the compound listed here: CC[C@H](Nc1cc(C(F)F)c(-c2sc(C(=O)NCC(C)(C)O)nc2C(=O)N2C3CCC2CC3)cn1)C(F)(F)F
Result block: 100* %

Query block: Please look at CC[C@H](Nc1cc(C(F)F)c(-c2sc(C(=O)N[C@H](C)[C@@H](C)O)nc2C(=O)N2CCC[C@@H]2C)cn1)C(F)(F)F (relative stereo) and tell me its recorded RORγt (FL) Reporter Assay B or C, % inhibition (value marked *) on full-length human RORγt (Homo sapiens (Human)).
Result block: 96* %

Query block: Recall the reported RORγt (FL) Reporter Assay B or C, % inhibition (value marked *) of CC[C@H](Nc1cc(C(F)F)c(-c2sc(C(=O)NC3CCS(=O)(=O)CC3)nc2C(=O)N2CCC[C@@H]2C)cn1)C(F)(F)F on full-length human RORγt (Homo sapiens (Human)) and write it down.
Result block: 122* %

Query block: State RORγt (FL) Reporter Assay B or C, % inhibition (value marked *) on full-length human RORγt (Homo sapiens (Human)). Entry: CC(C)(O)CNC(=O)c1nc(C(=O)N2C3CCC2CC3)c(-c2cnc(NC(C)(C)C3CC3)cc2C(F)F)s1
Result block: 111* %

Query block: Retrieve RORγt (FL) Reporter Assay B or C, % inhibition (value marked *) on full-length human RORγt (Homo sapiens (Human)); query CC[C@H](Nc1cc(C(F)(F)F)c(-c2sc(C(=O)NCC(C)(C)O)nc2C(=O)N2CCCC[C@@H]2C)cn1)C(F)(F)F
Result block: 110* %

Query block: Report value: RORγt (FL) Reporter Assay B or C, % inhibition (value marked *), system: full-length human RORγt (Homo sapiens (Human)), compound: C[C@H](Nc1cc(C(F)(F)F)c(-c2sc(C(=O)NCC(C)(C)O)nc2C(=O)N2CC(F)(F)C[C@@H]2C)cn1)C(F)(F)F
Result block: 112* %

Query block: For full-length human RORγt (Homo sapiens (Human)), give the measured RORγt (FL) Reporter Assay B or C, % inhibition (value marked *) of the entry C[C@H]1CCCN1C(=O)c1nc(C(=O)NC[C@@H](O)C(C)(C)O)sc1-c1cnc(NC(C)(C)C)cc1C(F)(F)F (single isomer, unassigned)
Result block: 95* %

Query block: Under full-length human RORγt (Homo sapiens (Human)): report RORγt (FL) Reporter Assay B or C, % inhibition (value marked *) of C[C@H](NC(=O)c1nc(C(=O)N2CC(F)(F)C[C@@H]2C)c(-c2cnc(N[C@@H](C)C(F)(F)F)cc2C(F)F)s1)C(C)(C)O .
Result block: 91* %

Query block: Give RORγt (FL) Reporter Assay B or C, % inhibition (value marked *) for CC[C@H](Nc1cc(C(F)F)c(-c2sc(C(=O)N[C@H]3CCC[C@@H]3O)nc2C(=O)N2CCC[C@@H]2C)cn1)C(F)(F)F tested on full-length human RORγt (Homo sapiens (Human)).
Result block: 83* %

Query block: Give the observed RORγt (FL) Reporter Assay B or C, % inhibition (value marked *) of CC[C@H](Nc1cc(C(F)F)c(-c2sc(C(=O)N[C@@H](C)[C@@H](C)O)nc2C(=O)N2CCC[C@@H]2C)cn1)C(F)(F)F (relative stereo) for full-length human RORγt (Homo sapiens (Human)).
Result block: 112* %

Query block: Give RORγt (FL) Reporter Assay B or C, % inhibition (value marked *); test system full-length human RORγt (Homo sapiens (Human)); compound C[C@H]1CCCN1C(=O)c1nc(C(=O)NC2CS(=O)(=O)C2)sc1-c1cnc(NC2CCCC2)cc1C(F)F
Result block: 103* %

Query block: With full-length human RORγt (Homo sapiens (Human)) as the test system, provide measured RORγt (FL) Reporter Assay B or C, % inhibition (value marked *) for this compound: C[C@H]1CCCN1C(=O)c1nc(C(=O)NCC(C)(C)O)sc1-c1cnc(NCC2(C(F)(F)F)CCC2)cc1C(F)(F)F
Result block: 107* %
